As shown below, each of these sequences has a reported Rank (before) value.
# system_tested: MyD88^TIR (Homo sapiens, UniProt Q99836)
# Construct: MyD88 (residues 148–296); 6xHis; made in house; host or cells: E. coli BL21 (DE3)
# Sequence (Q99836 148-296): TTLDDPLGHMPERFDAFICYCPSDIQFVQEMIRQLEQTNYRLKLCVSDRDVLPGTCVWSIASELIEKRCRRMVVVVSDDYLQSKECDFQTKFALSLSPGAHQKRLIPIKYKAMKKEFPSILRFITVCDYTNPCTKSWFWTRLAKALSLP
# measurement_protocol: T‐Surf phage library (P8 and P3) selection against MyD88^TIR, four rounds, NGS read counts
# Type: binding
# assay_setup: P8_MyD88: rank by count before grouping
property_measured: Rank (before)

> print(dat)
           entry.sequence  recorded.measurement
 1   DPQDLDWFYDRLLYSLHVTE                  1088
 2  YASSSWALNELLEILDAKETM                  1901
 3       DPQDLDWFFERLVSLL                   707
 4       VANILGCHWIDWECFV                  2165
 5       QWALEELRLIMELHSV                   175
 6       MDYLLRILHSSNFTTF                   105
 7       DPQELEGVYERLVSLF                  2994
 8       DPQDLDWIYERLVSRF                  2831
 9       PQVLGWFYERLVSLIL                  3414
10       DPQGLDWFYERLFSQM                  2679
11       DPQDLLRFYEHLVSLF                  2901
12        DYASSTWWLRELLYA                  1060
13       LTEEIVNHILKRLAEL                   200
14      DPQDLEWFYERLVSLIP                  2884
15       DYASSWWALEEMAKIM                   202
16       DPQDRDWIYERLVSLF                  2956
17        HWIDWEYFVALKIIL                  1236
18       SSRWALDELVHIMQAL                   179
19       DPQDLEWFYERLVILF                  2849
20     YASSSWALEELVKIMEAM                  1898
21  YYDSRWALDELLKILDAKETM                  1677
22       DWAWDYLLPNLEGSAG                  2483
23       DPQDLDWFYERQVSLL                   568
24       DPQDLVWYYERLVSLF                  2717
25       LGYHWIVWEYFVGIDD                  3244
26       WALAELLQLLHARELF                  1410
27       DVLYWALTEAGIRVFR                   128
28       WWIQALAEVANMAGED                   158
29       NFVEYFVYQMMPDILE                   167
30       NSSWALEELVKIMEAM                   239
31       LGYHWLDWEYFVSIED                  3240
32       PQELEWFYERPVSLML                  3506
33       AEFWERLRMTVLETME                  1024
34       SAAYDDIWERLNRMIE                  3737
35       LGYHCMDWEYFVGIED                  3228
36       DVLYYALIDAGIRVFR                   216
37         DFSHFWLFEARGDA                  2381
38       DPQDLEWLYERLVSLF                  1108
39       AWTDDPVGQLFFWESL                   189
40       AYILNFIKGNVMFEFL                   140
41        YASSSWYLDELLQIA                  1870
42       YAASPWWFDELVTILG                  1725
43       PGYHWLEWEYFVGIED                  1195

---

# system_tested: MAL^TIR (Homo sapiens, UniProt P58753)
# Construct: MAL (residues 79–221); 6xHis; made in house; host or cells: E. coli BL21 (DE3)
# Sequence (P58753 79-221): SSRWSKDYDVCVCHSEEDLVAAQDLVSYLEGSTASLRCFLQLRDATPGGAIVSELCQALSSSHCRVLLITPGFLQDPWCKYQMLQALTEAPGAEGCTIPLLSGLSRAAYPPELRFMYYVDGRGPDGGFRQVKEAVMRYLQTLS
# measurement_protocol: T‐Surf phage library (P8 and P3) selection against MAL^TIR, four rounds, NGS read counts
# Type: binding
# assay_setup: P3_MAL pool: P3 T-Surf phage library, 4th round of selection against MAL TIR, share of NGS reads
Given measured Population, output y if it is greater than or equal to 0.004% and n if not.

> print(dat)
          entry.sequence  label.class
 1      YAFTGHLHRYLVQRGI            n
 2      YAFTGYLHRYLVQRGV            y
 3      YAFTGHLHRYLVQRGL            n
 4  KERLHQWKLALTQAANLSGW            n
 5      RLLKWKEALHQFHSWV            y
 6      SSFREGLWRLPELSKK            y
 7      YAFTGHLHRYLVQRAL            y
 8      YAFTGHLHRYLVQLGV            y
 9      YAFTCHLHRYLVQRGV            y
10      PNLRTKVLNYLMRIKT            y
11      RGFLSHLRHHLQAIDH            y
12      DLFLSKLSQHILKREK            n
13      NAFTGHLHRYLVQRGV            y
14      PNLRTKVLNYLMRNKT            y
15      YAFTGHLHRYLMRTKT            n
16      YAFTGHLHRYLVQRGA            n
17      PNLRTKGLNYLMRTKT            n

---

# system_tested: MyD88^TIR (Homo sapiens, UniProt Q99836)
# Construct: MyD88 (residues 148–296); 6xHis; made in house; host or cells: E. coli BL21 (DE3)
# measurement_protocol: T‐Surf phage library (P8 and P3) selection against MyD88^TIR, four rounds, NGS read counts
# Type: binding
# assay_setup: P8_MyD88: rank by count after grouping
property_measured: Rank (after)

> print(dat)
         entry.sequence  property.measured  recorded.measurement
1       FDASTWWLRELLQIA       Rank (after)                   413
2       VQWDDPWFWDKLAYA       Rank (after)                   417
3      LGYHWIVWEYFVGIDD       Rank (after)                   421
4      IDDDHLTYLVRLIEAL       Rank (after)                   473
5  YASYDDNDYYWVTPVLLRLV       Rank (after)                   435
6      DSVFWDLLRYSLHVTE       Rank (after)                   466
7      MFGGDSFHDFLELISM       Rank (after)                   391
8       HWIDWEYFVALKIIL       Rank (after)                   427

---

As shown below, each of these sequences has a reported Rank (before) value.
# system_tested: MyD88^TIR (Homo sapiens)
# Construct: MyD88 (residues 148–296); 6xHis; made in house; host or cells: E. coli BL21 (DE3)
# measurement_protocol: T‐Surf phage library (P8 and P3) selection against MyD88^TIR, four rounds, NGS read counts
# Assay type: binding
# assay_setup: P8_MyD88: rank by count before grouping
property_measured: Rank (before)

> print(dat)
           entry.sequence  recorded.measurement
 1       LGYHWVDWEYCVGIED                  3233
 2       WKNALANIAEILGFEL                   180
 3       YLEWPLDENQQLIFWF                  1960
 4         LEANDSLFWDRLYY                  1189
 5   YASYDDNDYYWVTPVLLRLV                  1767
 6        PQDLQWFYERLVSLI                   186
 7       WAQEQDGFWVRLIEAL                   878
 8       EDTLIRLLVQRIMKEL                   198
 9       HYTDSYFALHELALLL                   138
10  YYDSRWALDELLKILYANETM                   192
11        FDASTWWLRELLQIA                   814
12       YASSSWALNELPRILY                  1902
13       VQWEDPWFWDKLAYEM                  2253
14         DPQDLDWFYERLLS                  2786
15       IFISHLYNSLTNAGIY                   227
16       WLESVLEDKFGYSLAL                   116
17       WALDEVLQILRARELF                  1421
18       YASSIWALNELIRILE                   149
19       QDLGWFYERLISQILK                   114
20       EGFTGFLYEALTRYGI                   197
21       YLQDLDWFYERLVSLF                  2080
22       DFLNWFIAPNSTVIEN                  2364
23       DIVAYVMQKLMKHQVF                   169
24       WALDLQWFYERLVSLI                  1518
